assayInfo: Oral bioavailability in CD1 mouse at 10 mg/kg administered via gavage by LC/MS/MS analysis
Format: ADME, organism-based
conditionDetails: in vivo
valueType: bioavailability (%)
Write the number in % without appending the unit.

Enquiry: // bioavailability lookup, key: `CC[C@@H](C)Nc1nc(Nc2cc(N3C[C@@H]4C[C@H]3CN4C)cnc2F)ncc1C`
Return: 30

###

# pIC50 per record follows
testedOn: UniProt:P29597
Sequence (P29597 whole entry, the tested form may be a part): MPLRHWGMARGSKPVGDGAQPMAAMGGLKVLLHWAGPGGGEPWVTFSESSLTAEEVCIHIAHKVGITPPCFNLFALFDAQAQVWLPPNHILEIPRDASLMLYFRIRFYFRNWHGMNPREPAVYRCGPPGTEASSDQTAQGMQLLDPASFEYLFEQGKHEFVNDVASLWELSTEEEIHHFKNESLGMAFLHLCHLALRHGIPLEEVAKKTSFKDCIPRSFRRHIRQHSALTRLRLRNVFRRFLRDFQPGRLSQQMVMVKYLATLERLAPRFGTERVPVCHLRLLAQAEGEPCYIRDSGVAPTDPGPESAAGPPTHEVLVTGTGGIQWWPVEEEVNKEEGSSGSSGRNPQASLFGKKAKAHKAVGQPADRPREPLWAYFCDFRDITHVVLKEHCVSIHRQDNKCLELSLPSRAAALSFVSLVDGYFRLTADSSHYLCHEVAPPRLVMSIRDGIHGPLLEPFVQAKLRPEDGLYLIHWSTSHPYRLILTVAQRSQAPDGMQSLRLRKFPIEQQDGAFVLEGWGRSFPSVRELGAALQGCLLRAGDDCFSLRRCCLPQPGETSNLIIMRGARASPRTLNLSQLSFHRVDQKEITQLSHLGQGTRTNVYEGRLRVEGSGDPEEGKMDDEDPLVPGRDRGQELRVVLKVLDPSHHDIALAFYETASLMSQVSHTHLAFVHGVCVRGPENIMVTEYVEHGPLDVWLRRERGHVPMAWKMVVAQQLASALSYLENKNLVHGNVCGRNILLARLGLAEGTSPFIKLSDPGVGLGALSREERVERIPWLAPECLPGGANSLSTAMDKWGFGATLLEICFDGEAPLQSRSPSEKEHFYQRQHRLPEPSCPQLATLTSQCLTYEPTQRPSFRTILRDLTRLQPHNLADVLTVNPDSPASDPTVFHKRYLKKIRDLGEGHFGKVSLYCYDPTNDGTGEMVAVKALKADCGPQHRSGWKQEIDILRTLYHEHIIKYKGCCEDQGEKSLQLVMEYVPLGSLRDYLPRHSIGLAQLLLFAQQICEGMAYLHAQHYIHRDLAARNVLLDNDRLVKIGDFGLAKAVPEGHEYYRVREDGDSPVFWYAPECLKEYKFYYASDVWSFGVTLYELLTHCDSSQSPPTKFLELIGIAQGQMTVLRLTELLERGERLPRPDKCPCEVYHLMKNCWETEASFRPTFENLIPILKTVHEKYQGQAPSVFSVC
assayInfo: Inhibition of recombinant human N-terminal GST-tagged TYK2 (871 to 1187 residues) expressed in baculovirus expression system using 5FAM-GEEPLYWSFPAKKK-NH2 as substrate after 10 mins by caliper assay
pIC50: −log10 of the molar value.

Below: 2 molecules and their reported pIC50.
CC[C@@H](C)Nc1nc(Nc2cc(N3C[C@@H]4C[C@H]3CN4C)cnc2F)ncc1C | < 4.52
CCC(CC)Nc1nc(Nc2cc(N3C[C@@H]4C[C@H]3CN4C)cnc2F)ncc1C | < 4.52

Now take the following molecule into account.
Enquiry: I'd like to know its pIC50. The molecule in question is `Cc1cnc(Nc2cc(N3C[C@@H]4C[C@H]3CN4C)cnc2F)nc1N[C@H](C)C(C)C`
Return: 4.61

###

testedOn: Tyrosine-protein kinase JAK3 (Homo sapiens)
assayInfo: Inhibition of recombinant human JAK3 (781 to 1124 residues) expressed in insect cells using 5FAM-GEEPLYWSFPAKKK-NH2 as substrate after 10 mins by caliper assay
This section presents molecules with their documented IC50 values.

Record excerpt, results attached:
COCCN1CCN(c2cc(Nc3ncc(C)c(Nc4cccc(CO)c4)n3)cc(S(C)(=O)=O)c2)CC1 | > 30 µM
CN1CCN(c2cc(Nc3ncc(Br)c(Nc4cccc(CO)c4)n3)cc(S(C)(=O)=O)c2)CC1 | 6.54 µM
CN1CCN(c2cc(Nc3nccc(Nc4cccc(CO)c4)n3)cc(S(C)(=O)=O)c2)CC1 | > 30 µM
Cc1cnc(Nc2cc(N3C[C@@H]4C[C@H]3CN4C)cnc2F)nc1Nc1cccc(CO)c1 | > 30 µM

# context switch: different molecule, same IC50
Enquiry: Fill blank: measured IC50 of the molecule `Cc1cnc(Nc2cc(N3C[C@@H]4C[C@H]3CN4C)ccc2F)nc1Nc1cccc(CO)c1` is ____.
Return: > 30 µM

###

assayInfo: Half life in CD1 mouse at 50 mg/kg, po administered via gavage by LC/MS/MS analysis
Format: ADME, organism-based
conditionDetails: in vivo
valueType: half-life
Please answer in the form of a number followed by its unit of measurement.

Enquiry: So what does the record say about half-life for `CC[C@@H](C)Nc1nc(Nc2cc(N3C[C@@H]4C[C@H]3CN4C)cnc2F)ncc1C` ?
Return: 5.3 h

###

testedOn: Tyrosine-protein kinase JAK3 (Homo sapiens, UniProt P52333)
Sequence (P52333 whole entry, the tested form may be a part): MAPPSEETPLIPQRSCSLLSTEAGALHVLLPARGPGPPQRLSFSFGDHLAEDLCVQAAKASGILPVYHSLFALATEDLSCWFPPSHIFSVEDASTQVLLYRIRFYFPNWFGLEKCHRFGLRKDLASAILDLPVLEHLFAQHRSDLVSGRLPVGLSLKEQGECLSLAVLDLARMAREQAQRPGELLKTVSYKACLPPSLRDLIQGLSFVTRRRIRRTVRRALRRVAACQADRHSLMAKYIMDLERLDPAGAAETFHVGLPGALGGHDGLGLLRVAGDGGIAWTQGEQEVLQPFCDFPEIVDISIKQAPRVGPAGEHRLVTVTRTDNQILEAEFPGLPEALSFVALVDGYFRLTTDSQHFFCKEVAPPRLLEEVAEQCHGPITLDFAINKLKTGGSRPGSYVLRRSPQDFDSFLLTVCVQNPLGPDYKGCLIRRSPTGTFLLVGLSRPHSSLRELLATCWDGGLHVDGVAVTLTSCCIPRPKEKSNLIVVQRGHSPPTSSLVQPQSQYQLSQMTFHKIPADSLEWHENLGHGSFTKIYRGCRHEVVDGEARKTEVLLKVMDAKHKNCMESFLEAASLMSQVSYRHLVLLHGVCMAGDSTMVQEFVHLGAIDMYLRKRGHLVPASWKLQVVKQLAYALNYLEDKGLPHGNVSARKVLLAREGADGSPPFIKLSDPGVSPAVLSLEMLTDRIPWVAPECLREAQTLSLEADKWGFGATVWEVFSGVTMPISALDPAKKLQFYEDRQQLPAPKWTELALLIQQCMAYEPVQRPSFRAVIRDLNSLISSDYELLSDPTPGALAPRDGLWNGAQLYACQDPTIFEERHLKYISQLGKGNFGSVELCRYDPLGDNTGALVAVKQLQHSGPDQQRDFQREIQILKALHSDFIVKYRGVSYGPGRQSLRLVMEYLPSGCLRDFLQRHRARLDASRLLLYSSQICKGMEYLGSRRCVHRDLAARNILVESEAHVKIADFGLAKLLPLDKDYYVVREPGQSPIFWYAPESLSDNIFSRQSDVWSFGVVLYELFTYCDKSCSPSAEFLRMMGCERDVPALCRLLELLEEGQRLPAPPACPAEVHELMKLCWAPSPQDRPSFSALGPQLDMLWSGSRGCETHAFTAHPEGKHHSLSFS
assayInfo: Inhibition of recombinant human JAK3 (781 to 1124 residues) expressed in insect cells using 5FAM-GEEPLYWSFPAKKK-NH2 as substrate after 10 mins by caliper assay
valueType: IC50 (µM)
Express your answer in µM, writing the number without its unit.

Worked cases, IC50 given:
CN1CCN(c2cc(Nc3ncc(Cl)c(Nc4cccc(CO)c4)n3)cc(S(C)(=O)=O)c2)CC1 | 12.6
CC(=O)N1CCN(c2cc(Nc3ncc(C)c(Nc4cccc(CO)c4)n3)cc(S(C)(=O)=O)c2)CC1 | 24.6
Cc1cnc(Nc2cc(C(F)F)cc(N3C[C@@H]4C[C@H]3CN4C)c2)nc1Nc1cccc(CO)c1 | 18.1

Enquiry: Fill in: IC50 of `Cc1cnc(Nc2cc(N3CCOCC3)cc(N3CCOCC3)c2)nc1Nc1cccc(CO)c1` is ___
Return: 0.371

###

testedOn: Tyrosine-protein kinase JAK2 (Homo sapiens, UniProt O60674)
Sequence (O60674 whole entry, the tested form may be a part): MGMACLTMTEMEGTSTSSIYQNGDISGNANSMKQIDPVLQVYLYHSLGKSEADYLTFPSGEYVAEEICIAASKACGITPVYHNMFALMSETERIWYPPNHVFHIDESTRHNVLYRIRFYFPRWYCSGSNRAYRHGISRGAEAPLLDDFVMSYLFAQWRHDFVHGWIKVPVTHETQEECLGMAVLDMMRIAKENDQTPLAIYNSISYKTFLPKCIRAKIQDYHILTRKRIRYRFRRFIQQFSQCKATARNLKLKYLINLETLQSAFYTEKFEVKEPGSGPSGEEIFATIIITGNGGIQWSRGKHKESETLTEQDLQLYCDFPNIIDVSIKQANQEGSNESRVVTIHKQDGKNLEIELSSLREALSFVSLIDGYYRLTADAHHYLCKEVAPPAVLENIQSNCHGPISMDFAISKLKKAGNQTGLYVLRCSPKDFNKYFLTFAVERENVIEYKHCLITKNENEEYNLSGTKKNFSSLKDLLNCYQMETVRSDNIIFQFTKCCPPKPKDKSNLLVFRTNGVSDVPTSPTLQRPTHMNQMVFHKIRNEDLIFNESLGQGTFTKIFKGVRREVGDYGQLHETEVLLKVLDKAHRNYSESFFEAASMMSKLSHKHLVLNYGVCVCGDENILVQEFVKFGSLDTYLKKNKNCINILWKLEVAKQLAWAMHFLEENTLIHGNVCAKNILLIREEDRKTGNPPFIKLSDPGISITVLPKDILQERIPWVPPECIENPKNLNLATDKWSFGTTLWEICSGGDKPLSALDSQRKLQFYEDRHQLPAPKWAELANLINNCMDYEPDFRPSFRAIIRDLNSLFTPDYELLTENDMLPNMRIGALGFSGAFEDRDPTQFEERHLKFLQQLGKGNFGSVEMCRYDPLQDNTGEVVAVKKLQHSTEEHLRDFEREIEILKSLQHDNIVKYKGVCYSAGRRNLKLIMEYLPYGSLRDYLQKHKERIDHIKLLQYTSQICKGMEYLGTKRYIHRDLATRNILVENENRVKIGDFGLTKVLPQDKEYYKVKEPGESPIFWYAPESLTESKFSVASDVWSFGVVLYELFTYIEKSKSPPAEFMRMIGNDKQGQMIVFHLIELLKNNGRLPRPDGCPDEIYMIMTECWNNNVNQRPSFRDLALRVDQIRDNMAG
assayInfo: Inhibition of recombinant human JAK2 (831 to 1132 residues) expressed in insect cells using 5FAM-GEEPLYWSFPAKKK-NH2 as substrate after 10 mins by caliper assay
valueType: pIC50
Quick note: pIC50 means taking -log10 of the concentration in moles per liter.

Previously resolved entries follow.
CC(=O)N1CCN(c2cc(Nc3ncc(C)c(Nc4cccc(CO)c4)n3)cc(S(C)(=O)=O)c2)CC1 | 6.46
Cc1cnc(Nc2cc(N3C[C@@H]4C[C@H]3CN4C)cc(S(C)(=O)=O)c2)nc1Nc1cccc(CO)c1 | 5.93
Cc1cnc(Nc2cc(N3CCN(C)CC3)cc(S(C)(=O)=O)c2)nc1Nc1cccc(CO)c1 | 6.03
CN1CCN(c2cc(Nc3nccc(Nc4cccc(CO)c4)n3)cc(S(C)(=O)=O)c2)CC1 | 4.86
Cc1cnc(Nc2cc(N3C[C@@H](C)N[C@@H](C)C3)cc(S(C)(=O)=O)c2)nc1Nc1cccc(CO)c1 | 6.00

Enquiry: GET /values?readout=pIC50&system=Tyrosine-protein kinase JAK2 (Homo sapiens, UniProt O60674)&item= `Cc1cnc(Nc2cc(N3CCN(CCO)CC3)cc(S(C)(=O)=O)c2)nc1Nc1cccc(CO)c1`
Return: 6.09

Enquiry: For Tyrosine-protein kinase JAK2 (Homo sapiens, UniProt O60674), provide pIC50 of `Cc1cnc(Nc2cc(N3CCNCC3)cc(S(C)(=O)=O)c2)nc1Nc1cccc(CO)c1` please.
Return: 6.02

Enquiry: Query for Tyrosine-protein kinase JAK2 (Homo sapiens, UniProt O60674): what pIC50 does the record show for `Cc1cnc(Nc2cc(N3CCOCC3)cc(S(C)(=O)=O)c2)nc1Nc1cccc(CO)c1` ?
Return: 6.38

Enquiry: # returns recorded pIC50 (system: Tyrosine-protein kinase JAK2 (Homo sapiens, UniProt O60674)) for `CN1CCN(c2cc(Nc3ncc(Br)c(Nc4cccc(CO)c4)n3)cc(S(C)(=O)=O)c2)CC1`
Return: 6.44

Enquiry: Report pIC50 for `COCCN1CCN(c2cc(Nc3ncc(C)c(Nc4cccc(CO)c4)n3)cc(S(C)(=O)=O)c2)CC1` tested on Tyrosine-protein kinase JAK2 (Homo sapiens, UniProt O60674).
Return: 5.99

###

# IC50 values compiled below
testedOn: Tyrosine-protein kinase JAK1 (Homo sapiens)
Sequence (P23458 whole entry, the tested form may be a part): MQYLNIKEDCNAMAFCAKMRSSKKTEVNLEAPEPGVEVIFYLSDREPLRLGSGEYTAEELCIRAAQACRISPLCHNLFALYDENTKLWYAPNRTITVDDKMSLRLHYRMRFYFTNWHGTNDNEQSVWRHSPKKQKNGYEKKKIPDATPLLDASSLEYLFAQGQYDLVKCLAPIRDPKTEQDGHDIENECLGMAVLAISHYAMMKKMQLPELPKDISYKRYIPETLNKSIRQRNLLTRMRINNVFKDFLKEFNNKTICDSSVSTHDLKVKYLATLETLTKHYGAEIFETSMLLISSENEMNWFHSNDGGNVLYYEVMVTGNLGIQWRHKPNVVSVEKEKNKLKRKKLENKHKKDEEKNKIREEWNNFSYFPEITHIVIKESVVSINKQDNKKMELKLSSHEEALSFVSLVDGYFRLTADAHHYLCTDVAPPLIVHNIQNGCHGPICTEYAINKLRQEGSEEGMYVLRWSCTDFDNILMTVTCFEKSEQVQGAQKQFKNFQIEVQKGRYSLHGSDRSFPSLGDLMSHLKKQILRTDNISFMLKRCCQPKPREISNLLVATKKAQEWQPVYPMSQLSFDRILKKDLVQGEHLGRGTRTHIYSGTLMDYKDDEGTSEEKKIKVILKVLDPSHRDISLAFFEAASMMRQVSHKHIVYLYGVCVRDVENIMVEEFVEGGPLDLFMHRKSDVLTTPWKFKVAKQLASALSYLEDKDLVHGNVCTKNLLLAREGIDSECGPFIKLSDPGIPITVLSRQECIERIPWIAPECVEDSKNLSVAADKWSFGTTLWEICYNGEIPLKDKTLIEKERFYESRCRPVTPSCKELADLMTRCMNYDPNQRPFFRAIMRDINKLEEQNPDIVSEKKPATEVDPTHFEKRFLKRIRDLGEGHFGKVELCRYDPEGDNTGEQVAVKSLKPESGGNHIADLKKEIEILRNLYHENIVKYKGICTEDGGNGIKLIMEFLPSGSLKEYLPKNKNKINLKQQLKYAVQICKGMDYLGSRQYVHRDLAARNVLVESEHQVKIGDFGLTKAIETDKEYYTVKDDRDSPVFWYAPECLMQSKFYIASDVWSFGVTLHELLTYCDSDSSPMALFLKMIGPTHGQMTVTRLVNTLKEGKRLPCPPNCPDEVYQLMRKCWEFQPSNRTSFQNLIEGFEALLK
assayInfo: Inhibition of cytoplasmic recombinant human GST-tagged JAK1 (886 to 1154 residues) expressed in insect cells using FITC-C6-KKHTDDGYMPMSPGVA-NH as substrate after 10 mins by caliper assay
Give the quantity in nM, number only.

Cc1cnc(Nc2cc(N3CCOCC3)cc(N3CCOCC3)c2)nc1Nc1cccc(CO)c1 | 4
CCC(CC)Nc1nc(Nc2cc(N3C[C@@H]4C[C@H]3CN4C)cnc2F)ncc1C | 29

Enquiry: Field request: IC50 | item: `CC[C@@H](C)Nc1nc(Nc2cc(N3C[C@@H]4C[C@H]3CN4C)cnc2F)ncc1C`
Return: 34

###

assayInfo: Half life in CD1 mouse at 10 mg/kg, po administered via gavage by LC/MS/MS analysis
Format: ADME, organism-based
conditionDetails: in vivo
valueType: half-life (min)
Record the value in min, omitting the unit from your answer.

Enquiry: For the compound `CC[C@@H](C)Nc1nc(Nc2cc(N3C[C@@H]4C[C@H]3CN4C)cnc2F)ncc1C` , what half-life is on record?
Return: 282

###

assayInfo: Octanol-water partition coefficient, log D of the compound in sodium phosphate buffer at pH 7.4 after 5 hrs by shake-flask assay
Assay type: physicochemical
Below is a list of entries, each paired with its recorded logD at 5 h value.

CN1CCN(c2cc(Nc3ncc(Cl)c(Nc4cccc(CO)c4)n3)cc(S(C)(=O)=O)c2)CC1 | 2.16
Cc1cnc(Nc2cc(N3C[C@@H]4C[C@H]3CN4C)cc(S(C)(=O)=O)c2)nc1Nc1cccc(CO)c1 | 0.82
Cc1cnc(Nc2cc(N3CCN(C)CC3)cc(S(C)(=O)=O)c2)nc1Nc1cccc(CO)c1 | 1.74
Cc1cnc(Nc2cc(N3C[C@@H](C)N[C@@H](C)C3)cc(S(C)(=O)=O)c2)nc1Nc1cccc(CO)c1 | 1.24
CN1CCN(c2cc(Nc3ncc(F)c(Nc4cccc(CO)c4)n3)cc(S(C)(=O)=O)c2)CC1 | 1.84

Enquiry: So what's the measured logD at 5 h for this one? `CC(=O)N1CCN(c2cc(Nc3ncc(C)c(Nc4cccc(CO)c4)n3)cc(S(C)(=O)=O)c2)CC1`
Return: 1.74

Enquiry: Bench note: what logD at 5 h did `Cc1cnc(Nc2cc(N3CCNCC3)cc(S(C)(=O)=O)c2)nc1Nc1cccc(CO)c1` show?
Return: 1.09

Enquiry: For the compound shown here, `Cc1cnc(Nc2cc(N3CCN(CCO)CC3)cc(S(C)(=O)=O)c2)nc1Nc1cccc(CO)c1` , give the reported logD at 5 h.
Return: 1.29

###

assayInfo: Volume of distribution at steady state in CD1 mouse at 3 mg/kg, iv by LC/MS/MS analysis
Assay type: ADME, organism-based
conditionDetails: in vivo, read-out: Vdss
valueType: Vd

Enquiry: Name the reported Vd value associated with the compound `CC[C@@H](C)Nc1nc(Nc2cc(N3C[C@@H]4C[C@H]3CN4C)cnc2F)ncc1C`
Return: 10.3 L/kg
